- assayedTarget: human glucagon receptor (GCGR) (human, UniProt P47871 26-477)
- Sequence (P47871 26-477): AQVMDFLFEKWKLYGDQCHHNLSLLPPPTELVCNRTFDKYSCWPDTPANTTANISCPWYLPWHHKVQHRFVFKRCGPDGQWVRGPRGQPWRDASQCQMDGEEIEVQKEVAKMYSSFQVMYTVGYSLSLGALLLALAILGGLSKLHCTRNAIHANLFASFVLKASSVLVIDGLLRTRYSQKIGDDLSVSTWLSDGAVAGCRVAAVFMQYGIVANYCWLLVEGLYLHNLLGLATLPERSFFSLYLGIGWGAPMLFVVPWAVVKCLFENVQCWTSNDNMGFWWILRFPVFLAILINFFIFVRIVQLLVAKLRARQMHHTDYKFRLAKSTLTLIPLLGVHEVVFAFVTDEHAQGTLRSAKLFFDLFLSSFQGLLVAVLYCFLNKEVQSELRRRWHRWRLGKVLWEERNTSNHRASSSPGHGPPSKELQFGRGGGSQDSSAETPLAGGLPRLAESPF
- testProtocol: cell-based or functional assay
*1 amine or outer side, *2 acyl side, *3 side chain or, on linkers, in order; H or OH if unused. Primed or numbered codes have the meaning given here. Where no end group is shown, it is not given here. Side-chain parts run from the residue outwards. [ ]: non-standard residue; d: D form. The star is where a group is joined. PEG4′ = 4 PEG units (K(PEGxpalm): Lys with x PEG units and palmitoyl at epsilon N, C-terminal (PEG)4); γGlu = O=C(O)[C@H](CCC(=O)[*:2])N[*:1]; Palmitoyl = CCCCCCCCCCCCCCCC(=O)*; Aib = CC(C)(N)C(=O)O
quantityName: cAMP activity, Glcg EC50 nM (nM)

Below: 3 binders and their reported cAMP activity, Glcg EC50 nM.
[[record]]
binder = "HSQGTFTSDYSXYLDSRRAQDFVQWLV (not fully specified; K(PEG4-palm) at 12; C-terminal PEG4) [g417]"
measurement = 0.003

[[record]]
binder = "HSQGTFTSDYSKYLDSRRAQDFVQWLV (C-terminal 11-aminoundecanoic acid (Aud)) [g358]"
measurement = 0.03

[[record]]
binder = "H[Aib]QGTFTSDYSKYLDSK([PEG4′-γGlu-Palmitoyl])RARDFVAWLV[PEG4′] [g968]"
measurement = 0.006


A = HSQGTFTSDYSKYLDSRK([γGlu-Palmitoyl])AQDFVQWLE[PEG4′] [g454]
B = HXQGTFTSDYSKYLDSXRAQDFVQWLV (alpha-amino-iso-butyric acid (Aib) at 2; K(PEG4-palm) at 17; C-terminal PEG4) [g501]
C = HSQGTFTSDYSKYLDSXRAQDFVQWLE (not fully specified; K(PEG4-palm) at 17; C-terminal PEG4) [g429]
D = HSQGTFTSDYSKYLDSXRAQDFVQWLV (not fully specified; K(PEG2-gE-palm) at 17; C-terminal PEG4) [g965]
Problem: Returns the items ordered by cAMP activity, Glcg EC50 nM, from maximum to minimum. Answer by naming the labels in the order asked.
Solution: A, C, B, D
(A: 0.08 nM, C: 0.005 nM, B: 0.003 nM, D: 0.002 nM)
